B1: Pistol ribozyme (parent)
chain: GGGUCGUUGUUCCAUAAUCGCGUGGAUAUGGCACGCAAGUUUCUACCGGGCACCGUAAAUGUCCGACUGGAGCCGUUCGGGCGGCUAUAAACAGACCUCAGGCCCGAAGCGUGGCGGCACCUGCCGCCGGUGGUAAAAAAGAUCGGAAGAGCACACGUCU

- Variants of: B1
- experiment_description: aptazyme ON/OFF ratio, guanine; higher = stronger switching; co-transcriptional cleavage with and without guanine
Entries and their aptazyme ON/OFF ratio

- mutation_list: "U7G U8G G9C U10G C13U"
  aptazyme ON/OFF ratio: 1.26
- mutation_list: "U7A U10C U11A C12A C13A"
  aptazyme ON/OFF ratio: 1.21
- mutation_list: "U8C G9A U10G U11A C12G"
  aptazyme ON/OFF ratio: 1.14
- mutation_list: "U7C U8A G9U U10A U11C C12U C13A"
  aptazyme ON/OFF ratio: 1.14
- mutation_list: "U7A U8G G9C U10A U11C C12U C13A"
  aptazyme ON/OFF ratio: 1.26
- mutation_list: "U7C U8G G9A U10C C12A C13U"
  aptazyme ON/OFF ratio: 1.14
- mutation_list: "G9U U10A C12U C13A"
  aptazyme ON/OFF ratio: 0.769
- mutation_list: "U7A U8A G9U C13G"
  aptazyme ON/OFF ratio: 1.05
- mutation_list: "U7G G9C U10C U11A C12U"
  aptazyme ON/OFF ratio: 1.4
- mutation_list: "U7A U8G G9U U10C U11C C12G C13U"
  aptazyme ON/OFF ratio: 1.46
- mutation_list: "U7C G9A U11C C12G C13U"
  aptazyme ON/OFF ratio: 1.18
- mutation_list: "U7G G9C U10A U11A C13A"
  aptazyme ON/OFF ratio: 1.31
- mutation_list: "U7C U8A G9A U10C U11G C12A C13A"
  aptazyme ON/OFF ratio: 1.2
- mutation_list: "U8A G9U U10C U11A C12A C13G"
  aptazyme ON/OFF ratio: 1.12
- mutation_list: "U7C U10C U11G C13G"
  aptazyme ON/OFF ratio: 1.17
- mutation_list: "U7G U10C U11G C12A C13U"
  aptazyme ON/OFF ratio: 1.11
- mutation_list: "U7A G9A U11A C12A C13G"
  aptazyme ON/OFF ratio: 1.16
- mutation_list: "U8C G9A U10G U11A C12U C13G"
  aptazyme ON/OFF ratio: 1.16
- mutation_list: "U7G U8C G9C U10A C12U C13U"
  aptazyme ON/OFF ratio: 1.04
- mutation_list: "U7A G9A U10A U11G C13A"
  aptazyme ON/OFF ratio: 1.29
- mutation_list: "U7A U8C G9C U10C U11A C12G C13G"
  aptazyme ON/OFF ratio: 1.08
- mutation_list: "U7A G9U U10G U11A C13G"
  aptazyme ON/OFF ratio: 1.08
- mutation_list: "U7A U8G G9U C13U"
  aptazyme ON/OFF ratio: 1.96
- mutation_list: "U7G U8C U10A U11G C12G C13U"
  aptazyme ON/OFF ratio: 1.25
- mutation_list: "G9C U10G C12G C13U"
  aptazyme ON/OFF ratio: 1.05
- mutation_list: "U7C U8G G9A U10C U11A C12A C13G"
  aptazyme ON/OFF ratio: 1.08
- mutation_list: "U7G U8C G9A U10C U11G"
  aptazyme ON/OFF ratio: 1.5
- mutation_list: "U7C U8A G9A U11C C12A"
  aptazyme ON/OFF ratio: 1.23
- mutation_list: "U7C U8A G9U U10G C12U"
  aptazyme ON/OFF ratio: 1.41
- mutation_list: "U7C U8G U10G"
  aptazyme ON/OFF ratio: 1.22

// data source = the RNAGym collection of RNA variant scans (doi:10.1021/acssynbio.7b00057)
